# Tested on: MT4 cells
# condition_context: read-out: MT4 CC50; non-infected MT4 cells, MTT
endpoint_label: CC50 (µM)

[
  {
    "compound": "CCOC(=O)C(=O)CC(=O)/C=C/c1cccn1Cc1ccccc1Cl [RDS1759]",
    "endpoint_label": "CC50",
    "assay_result": 39
  }
]

* * *

# Test system: HIV-1 NL4.3 wt
# condition_context: ratio between the CC50 and the EC50
In this section we review reported SI (selectivity index) values for a set of compounds.

[
  {
    "compound": "CCOC(=O)C(=O)CC(=O)/C=C/c1cccn1Cc1ccccc1Cl [RDS1759]",
    "tested_on": "HIV-1 NL4.3 wt",
    "SI (selectivity index)": 4.7
  },
  {
    "compound": "O=C1Nc2ccc(Cl)cc2[C@@](C#CC2CC2)(C(F)(F)F)O1 [EFV, efavirenz]",
    "tested_on": "HIV-1 NL4.3 wt",
    "SI (selectivity index)": ">6.25"
  },
  {
    "compound": "Cc1ccnc2c1NC(=O)c1cccnc1N2C1CC1 [NVP, nevirapine]",
    "tested_on": "HIV-1 NL4.3 wt",
    "SI (selectivity index)": ">5.5"
  },
  {
    "compound": "O=C(N/N=C/c1ccccc1O)c1cc(O)c(O)c(O)c1 [Compound 13]",
    "tested_on": "HIV-1 NL4.3 wt",
    "SI (selectivity index)": 6.1
  },
  {
    "compound": "Cc1cn([C@H]2C[C@H](N=[N+]=[N-])[C@@H](CO)O2)c(=O)[nH]c1=O [AZT, azidothymidine]",
    "tested_on": "HIV-1 NL4.3 wt",
    "SI (selectivity index)": ">500"
  },
  {
    "compound": "O=C(N/N=C/c1cc(O)c(O)cc1O)c1cc(O)c(O)c(O)c1 [Compound 21]",
    "tested_on": "HIV-1 NL4.3 wt",
    "SI (selectivity index)": 6.4
  }
]

* * *

# tested_on: HIV-1 RT-associated RDDP activity (wt RT) (Human immunodeficiency virus type 1 group M subtype B, UniProt P04585)
pIC50: −log10 of the molar value.

[
  {
    "smiles_representation": "O=C(N/N=C/c1ccccc1O)c1cc(O)c(O)c(O)c1",
    "pIC50": 4.09
  }
]

* * *

# System: HIV-1 NL4.3 wt
# condition_context: read-out: HIV-1 wt MT EC50; HIV-1 NL4.3 wt, MT4 cells, MTT, 5 days post infection; mean and SD of three experiments
In this section we review reported EC50 values for a set of compounds.
endpoint_label: EC50 (µM)

[
  {
    "compound": "CCOC(=O)C(=O)CC(=O)/C=C/c1cccn1Cc1ccccc1Cl [RDS1759]",
    "assay_result": 8.2
  },
  {
    "compound": "O=C(N/N=C/c1ccccc1O)c1cc(O)c(O)c(O)c1 [Compound 13]",
    "assay_result": 10.1
  }
]

* * *

# tested_on: HIV-1 RT-associated RNase H (wt RT) (Human immunodeficiency virus type 1 group M subtype B)
# protocol_details: HIV-1 DNA polymerase-independent RNase H activity, wt RT
# condition_context: RNase H IC50 against wt enzyme (site-directed mutagenesis study, Figure 4), determined in parallel with mutants

[
  {
    "compound": "O=C(N/N=C/c1ccccc1O)c1cc(O)c(O)c(O)c1 [Compound 13]",
    "IC50 / µM": 6.9
  }
]
